The reported measurements were obtained from patent US8859601B2.

Biological target: human V1a receptor (Homo sapiens, UniProt P37288)
Sequence (P37288 whole entry): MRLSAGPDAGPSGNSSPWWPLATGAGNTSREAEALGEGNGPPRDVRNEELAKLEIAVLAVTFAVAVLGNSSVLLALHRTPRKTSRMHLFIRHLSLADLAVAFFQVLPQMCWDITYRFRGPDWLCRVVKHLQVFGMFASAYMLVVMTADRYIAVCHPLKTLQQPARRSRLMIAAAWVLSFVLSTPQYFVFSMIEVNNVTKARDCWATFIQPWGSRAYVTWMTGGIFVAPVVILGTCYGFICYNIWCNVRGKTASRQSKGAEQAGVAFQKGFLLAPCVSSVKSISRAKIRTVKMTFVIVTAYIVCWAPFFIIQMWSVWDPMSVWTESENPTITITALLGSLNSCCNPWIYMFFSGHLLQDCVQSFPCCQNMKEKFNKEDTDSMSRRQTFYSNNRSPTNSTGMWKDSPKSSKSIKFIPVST
Experiment: Cellular in vitro assay for determining the vasopressin receptor activity (aequorin luminescence, antagonism of [Arg8]-vasopressin), hV1a
Conditions: CHO cell line transfected with the human V1a receptor; agonist [Arg8]-vasopressin
pIC50: −log10 of the molar value.
Hi, to clarify the labels: yes (1) covers pIC50 from 5 upward, no (0) covers anything below 5.

{"compound structure string": "CC(C)(C)NC(=O)c1ccc(S(=O)(=O)n2nc(-c3ccc(Cl)cc3)n(C3CC3)c2=O)cc1", "answer label": "yes (1)"}
{"compound structure string": "COc1cc(C(=O)NC(C)(C)C)ccc1S(=O)(=O)n1nc(-c2ccc(Cl)cc2)[nH]c1=O", "answer label": "no (0)"}

Q: Hello, I need to know if COc1cc(C(=O)NC(C)(C)C)ccc1S(=O)(=O)n1nc(N(C)C)n(C2CC2)c1=O has measured pIC50 not below 5. Thanks!
Result: no (0)

Q: Hello, I need to know if C=CCn1c(-c2ccc(Cl)cc2)nn(S(=O)(=O)c2ccc(C(=O)NC(C)(C)C)cc2OC)c1=O has measured pIC50 not below 5. Thanks!
Result: yes (1)

Q: Hello, I need to know if COc1cc(Cn2nc(-c3ccc(Cl)cc3)n(C3CC3)c2=O)ccc1C(=O)NC(C)(C)C has measured pIC50 not below 5. Thanks!
Result: yes (1)

Q: Hello, I need to know if COc1cc(C(=O)NC(C)(C)C)ccc1Cn1nc(-c2ccc(Cl)cc2)n(C2CC2)c1=O has measured pIC50 not below 5. Thanks!
Result: no (0)

Q: Hello, I need to know if COc1cc(C(=O)NC(C)(C)C)ccc1S(=O)(=O)n1nc(-c2ccc(Cl)cc2)n(C2CC2)c1=O has measured pIC50 not below 5. Thanks!
Result: yes (1)

----------
Target: human V2 receptor (Homo sapiens)
Construct: Gα16 (possible fusion partner; the text leaves open whether it was fused or expressed separately)
Sequence (P30518 whole entry, the tested form may be a part): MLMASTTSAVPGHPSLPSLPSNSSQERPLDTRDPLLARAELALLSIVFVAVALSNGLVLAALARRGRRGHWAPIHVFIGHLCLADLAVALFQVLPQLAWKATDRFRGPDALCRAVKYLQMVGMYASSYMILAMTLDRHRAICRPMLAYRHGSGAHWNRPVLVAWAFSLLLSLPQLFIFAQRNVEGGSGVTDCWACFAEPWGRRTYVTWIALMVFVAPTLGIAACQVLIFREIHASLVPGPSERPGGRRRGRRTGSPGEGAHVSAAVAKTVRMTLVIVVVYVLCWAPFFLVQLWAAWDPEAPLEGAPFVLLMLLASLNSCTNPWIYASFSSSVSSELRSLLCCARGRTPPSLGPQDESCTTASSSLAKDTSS
Assay: Cellular in vitro assay for determining the vasopressin receptor activity (aequorin luminescence, antagonism of [Arg8]-vasopressin), hV2
Details: CHO cell line transfected with the human V2 receptor (and Gα16); agonist [Arg8]-vasopressin
Source text: B-1. Cellular In Vitro Assay for Determining the Vasopressin Receptor Activity The identification of agonists and antagonists of the V1a and V2 vasopressin receptors from humans and rats and also the quantification of the activity of the substances described here took place using recombinant cell lines. These cells derive originally from a hamster ovary epithelial cell (Chinese Hamster Ovary, CHO K1, ATCC: American Type Culture Collection, Manassas, Va. 20108, USA). […]
reported endpoint: IC50 (nM)
Numbers only, in nM.

{"compound structure string": "COc1cc(C(=O)NC(C)(C)C)ccc1S(=O)(=O)n1nc(N(C)C)n(C2CC2)c1=O", "IC50 (nM)": 7}
{"compound structure string": "CC(C)(C)NC(=O)c1ccc(S(=O)(=O)n2nc(-c3ccc(Cl)cc3)n(C3CC3)c2=O)cc1", "IC50 (nM)": 4}
{"compound structure string": "C=CCn1c(-c2ccc(Cl)cc2)nn(S(=O)(=O)c2ccc(C(=O)NC(C)(C)C)cc2OC)c1=O", "IC50 (nM)": 3}

With those in mind, consider the next compound.
Q: Give its IC50 value. Item: COc1ccc(C(C)=O)cc1S(=O)(=O)n1nc(-c2ccc(Cl)cc2)n(C2CC2)c1=O
Result: 290

----------
Biological target: human V2 receptor (Homo sapiens)
Construct: Gα16 (possible fusion partner; the text leaves open whether it was fused or expressed separately)
Experiment: Cellular in vitro assay for determining the vasopressin receptor activity (aequorin luminescence, antagonism of [Arg8]-vasopressin), hV2
Details: CHO cell line transfected with the human V2 receptor (and Gα16); agonist [Arg8]-vasopressin
Assign labels as follows, please: 1 for IC50 below 10 nM; -1 for IC50 equal to or exceeding 10 nM.

{"molecule": "COc1cc(C(=O)NC(C)(C)C)ccc1S(=O)(=O)n1nc(-c2ccc(Cl)cc2)[nH]c1=O [Example 14]", "system under test": "human V2 receptor (Homo sapiens)", "answer label": 1}

Q: Determine whether this molecule shows IC50 lower than 10 nM (ties excluded): COc1cc(C(=O)NC(C)(C)C)ccc1S(=O)(=O)n1nc(OC(C)C)n(C2CC2)c1=O [Example 3]
Result: -1

Q: Determine whether this molecule shows IC50 lower than 10 nM (ties excluded): COc1cc(C(=O)NC(C)(C)C)ccc1S(=O)(=O)n1nc(-c2ccc(Cl)cc2)n(C2CC2)c1=O [Example 2]
Result: 1

----------
Molecular target: human V1a receptor (Homo sapiens, UniProt P37288)
Experiment: Cellular in vitro assay for determining the vasopressin receptor activity (aequorin luminescence, antagonism of [Arg8]-vasopressin), hV1a
Details: CHO cell line transfected with the human V1a receptor; agonist [Arg8]-vasopressin
Text: B-1. Cellular In Vitro Assay for Determining the Vasopressin Receptor Activity The identification of agonists and antagonists of the V1a and V2 vasopressin receptors from humans and rats and also the quantification of the activity of the substances described here took place using recombinant cell lines. These cells derive originally from a hamster ovary epithelial cell (Chinese Hamster Ovary, CHO K1, ATCC: American Type Culture Collection, Manassas, Va. 20108, USA). […]
reported endpoint: pIC50
Answers are plain numbers, as −log10 of the molar value.

{"compound structure string": "CC(C)(C)NC(=O)c1ccc(Cn2nc(-c3ccc(Cl)cc3)n(C3CC3)c2=O)c(Cl)c1", "pIC50": 5.38}

With those in mind, consider the next compound.
Q: Give its pIC50 value. Item: COc1ccc(C(C)=O)cc1S(=O)(=O)n1nc(-c2ccc(Cl)cc2)n(C2CC2)c1=O
Result: 5.46

----------
Molecular target: human V2 receptor (Homo sapiens)
Construct: Gα16 (possible fusion partner; the text leaves open whether it was fused or expressed separately)
Assay: Cellular in vitro assay for determining the vasopressin receptor activity (aequorin luminescence, antagonism of [Arg8]-vasopressin), hV2
Conditions: CHO cell line transfected with the human V2 receptor (and Gα16); agonist [Arg8]-vasopressin
Consider the following compounds; for each one, report its IC50.
Give bare numbers, in nM.

{"compound": "COc1cc(Cn2nc(-c3ccc(Cl)cc3)n(C3CC3)c2=O)ccc1C(=O)NC(C)(C)C [Example 22]", "recorded number": 220}
{"compound": "CC(C)(C)NC(=O)c1ccc(Cn2nc(-c3ccc(Cl)cc3)n(C3CC3)c2=O)c(Cl)c1 [Example 27]", "recorded number": 27}

With those in mind, consider the next compound.
Q: Give its IC50 value. Item: COc1cc(C(=O)NC(C)(C)C)ccc1Cn1nc(-c2ccc(Cl)cc2)n(C2CC2)c1=O [Example 20]
Result: 4
